protocolSummary: Identification of proteins required for the processing of the EWS-FLI1 nascent transcript;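 note: robust z of luciferase light less the median z of siRNAs with the same seed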
runConditions: TC32 Ewing sarcoma NR0B1-luc vs CMV-luc, 48 h; screened at 20 nM (by protocol)
Over roughly 59,000 sequences, the read-out has its median near -0.00055; the lowest 2% begin near -2. Many of the other results were omitted from the sample, so the lowest values are more common in it than they were.
reportedMetric: seed-corrected z-score
Number, no unit, nothing else.

// known answers, use as guide
INSERT INTO results (sequence, experimentalresult) VALUES
  ('UUUAGUUCCAGUGCCUUAG against CCDC151', 0.491),
  ('AUAGUCAGCUGUGCUCUGC against FLJ16423', -0.343),
  ('UCAAUAACCAUGAAGAUGC against FAM162A', 0.76),
  ('UCUGCUGAUAGCAAUGGGC against ZNF512B', -2.13),
  ('UCACUUAGCAGGCUCUCUG against DDIT4L', -0.677);

IN: Could you tell me which seed-corrected z-score is on file for UCUGGGAACACCCUCAGCA against GABRR2 ?
OUT: -0.593

IN: Could you tell me which seed-corrected z-score is on file for UUCUGGUUCACCGUCUUCC against SLC13A2 ?
OUT: -1.96

IN: Could you tell me which seed-corrected z-score is on file for ACAUCACAAAGUAUUAAUC against LOC643855 ?
OUT: 0.14

IN: Could you tell me which seed-corrected z-score is on file for UAGGAUUACAGCAAUCAUC against 11-Mar ?
OUT: 0.0159

IN: Could you tell me which seed-corrected z-score is on file for AAUUCGCAAAGAAUGAUGC against CNN1 ?
OUT: 0.159

IN: Could you tell me which seed-corrected z-score is on file for CUUGUAGCUUCUCUACAUC against LOC441347 ?
OUT: -0.389

IN: Could you tell me which seed-corrected z-score is on file for UCAGGAUAUAGUUUAGGAC against TMEM144 ?
OUT: 0.846

---

protocolSummary: Identification of proteins required for the processing of the EWS-FLI1 nascent transcript;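 note: robust z of luciferase light less the median z of siRNAs with the same seed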
runConditions: TC32 Ewing sarcoma NR0B1-luc vs CMV-luc (EWS-FLI1 target promoter against control promoter), 48 h; screened at 20 nM (by protocol)
Whole data set: some 59,000 sequences, median the read-out near -0.00055, cut for the lowest 2% near -2. The full list was thinned out, with the lowest values kept by preference.
Examples of sequences with documented seed-corrected z-score follow.
Number, no unit, nothing else.

// known answers, use as guide
INSERT INTO measurements (sequence, experimentalresult) VALUES
  ('UUCCUCUUCACCACGGUGU against CNNM3', -0.123),
  ('AAGUUUAGCAAAGACCUGC against VPS39', -2.66),
  ('UGCUGAAUGAGGUACGUGC against ZNF550', -0.438),
  ('AUCGCUGUUAAGAAGCUCC against CIITA', -0.918),
  ('UGUACAAGAAGUCAUAAGC against DSE', -0.289),
  ('UACCCAUACGGAGUAGCGA against ASMTL', -0.0723),
  ('UUUCGGCACUGCAAAGUCG against ATP10A', 0.235),
  ('UCUGGUUCCAGGUUGCUUA against SFXN3', -2.37);

IN: Could you tell me which seed-corrected z-score is on file for UGAGUUUCCAGGCUAUCAC against CCDC122 ?
OUT: -2.99

IN: Could you tell me which seed-corrected z-score is on file for AUAGACAUCUGAUCCGUUC against PGK1 ?
OUT: -0.0528

IN: Could you tell me which seed-corrected z-score is on file for AAAGAUAUCAGGCACCCAG against GABRR3 ?
OUT: 0.633

IN: Could you tell me which seed-corrected z-score is on file for AUAGUUAUCCUUUAAUAAC against SLC2A3 ?
OUT: -2.2

IN: Could you tell me which seed-corrected z-score is on file for UAUGCGUUUUGGAGAUUCC against PARP8 ?
OUT: -0.784
